assay_protocol: 4 hr in-vivo study: meloxicam plasma concentration after oral delivery to rats
experimental_conditions: male, Sprague-Dawley, plasma, 1 mg/kg, rat, time 120 min
experimental_readout: concentration at 120 min (ng/mL)

compound	experimental_readout	unit_of_measure	data_value
Cc1cnc(NC(=O)C2=C(O)c3ccccc3S(=O)(=O)N2C)s1 [Meloxicam, reference compound]	concentration at 120 min	ng/mL	30200

====

assay_protocol: 4 hr in-vivo study: meloxicam plasma concentration after oral delivery to rats
experimental_conditions: male, Sprague-Dawley, plasma, 1 mg/kg, rat, time 30 min
experimental_readout: concentration at 30 min (ng/mL)

compound	experimental_readout	data_value
Cc1cnc(NC(=O)C2=C(O)c3ccccc3S(=O)(=O)N2C)s1 [Meloxicam, reference compound]	concentration at 30 min	14800
